# credit: patent US20170107179A1

protocol.summary: Preliminary pharmacokinetics in Sprague Dawley rats
condition.parameters: rat, in vivo, po; Sprague Dawley rats (n = 3), initial preliminary testing; read-out: oral bioavailability (% F)

compound: CN(C)[C@@H]1C(O)=C(C(N)=O)C(=O)[C@@]2(O)C(O)=C3C(=O)c4c(O)c5c(c(F)c4C[C@H]3C[C@@H]12)CN(C(C)(C)C)C5 [Compound 102]
bioavailability, %: 48.3

* * *

Test system: E. coli DH10B EC1153 Tet(X)
protocol.summary: MIC, E. coli DH10B recombinantly expressing tetracycline-resistance gene; further: unit not given here
condition.parameters: arabinose-induced, ampicillin in medium
Measured MIC EC1153 Tet(X) values are reported for all entries that follow.

molecule: CO/N=C(\C(=O)N[C@@H]1C(=O)N2C(C(=O)O)=C(CSc3nc(=O)c(=O)[nH]n3C)CS[C@H]12)c1csc(N)n1 [Ceftriaxone]
MIC EC1153 Tet(X): 0.125
//
molecule: CN(C)[C@@H]1C(O)=C(C(N)=O)C(=O)[C@@]2(O)C(O)=C3C(=O)c4c(O)c5c(c(F)c4C[C@H]3C[C@@H]12)CN(C(C)(C)C)C5 [Compound 102]
MIC EC1153 Tet(X): 4
//
molecule: CN(C)c1cc(NC(=O)CNC(C)(C)C)c(O)c2c1C[C@H]1C[C@H]3[C@H](N(C)C)C(O)=C(C(N)=O)C(=O)[C@@]3(O)C(O)=C1C2=O [Tigecycline, tigecycline]
MIC EC1153 Tet(X): 2
//
molecule: CN(C)c1ccc(O)c2c1C[C@H]1C[C@H]3[C@H](N(C)C)C(O)=C(C(N)=O)C(=O)[C@@]3(O)C(O)=C1C2=O [Minocycline, minocycline]
MIC EC1153 Tet(X): 4
//
molecule: CN(C)[C@@H]1C(O)=C(C(N)=O)C(=O)[C@@]2(O)C(O)=C3C(=O)c4c(O)cccc4[C@@](C)(O)[C@H]3C[C@@H]12 [Tetracycline, tetracycline]
MIC EC1153 Tet(X): >32

* * *

protocol.summary: Non-GLP monkey pharmacokinetics
Type: in vivo
condition.parameters: cynomolgus monkey, plasma; cynomolgus monkeys, PO 10 mg/kg, average of 3

compound: CN(C)[C@@H]1C(O)=C(C(N)=O)C(=O)[C@@]2(O)C(O)=C3C(=O)c4c(O)c5c(c(F)c4C[C@H]3C[C@@H]12)CN(C(C)(C)C)C5 [Compound 102]
Tmax: 4 h

* * *

The entries below are paired with their reported MIC50.
Test system: Gram-negative and Gram-positive organisms (clinical isolates)
protocol.summary: Broth microdilution MIC against clinical isolates (CLSI M7-A8), Table 9
Format: cell-based
condition.parameters: Klebsiella pneumoniae, Klebsiella pneumonia, n=27

given.smiles: C[C@H]1COc2c(N3CCN(C)CC3)c(F)cc3c(=O)c(C(=O)O)cn1c23
experimental.target: Gram-negative and Gram-positive organisms (clinical isolates)
qualifier.sign: =
MIC50 / µg/mL: 1
//
given.smiles: CC(C)(O/N=C(\C(=O)N[C@@H]1C(=O)N2C(C(=O)[O-])=C(C[n+]3ccccc3)CS[C@H]12)c1csc(N)n1)C(=O)O
experimental.target: Gram-negative and Gram-positive organisms (clinical isolates)
qualifier.sign: >
MIC50 / µg/mL: 64
//
given.smiles: C[C@@H](O)[C@H]1C(=O)N2C(C(=O)O)=C(S[C@@H]3CN[C@H](C(=O)Nc4cccc(C(=O)O)c4)C3)[C@H](C)[C@H]12
experimental.target: Gram-negative and Gram-positive organisms (clinical isolates)
qualifier.sign: ≤
MIC50 / µg/mL: 1
//
given.smiles: CN(C)c1cc(NC(=O)CNC(C)(C)C)c(O)c2c1C[C@H]1C[C@H]3[C@H](N(C)C)C(O)=C(C(N)=O)C(=O)[C@@]3(O)C(O)=C1C2=O
experimental.target: Gram-negative and Gram-positive organisms (clinical isolates)
qualifier.sign: =
MIC50 / µg/mL: 2

* * *

protocol.summary: Non-GLP monkey pharmacokinetics
Assay type: in vivo
condition.parameters: cynomolgus monkey, plasma; cynomolgus monkeys, PO 10 mg/kg, average of 3

given.smiles: CN(C)[C@@H]1C(O)=C(C(N)=O)C(=O)[C@@]2(O)C(O)=C3C(=O)c4c(O)c5c(c(F)c4C[C@H]3C[C@@H]12)CN(C(C)(C)C)C5
AUC(0-t) (ng·h/mL): 16300

* * *

Reported MIC90 values for the following molecules.
System: Gram-negative and Gram-positive organisms (clinical isolates)
protocol.summary: Broth microdilution MIC against clinical isolates (CLSI M7-A8), Table 9
Assay type: cell-based
condition.parameters: Staphylococcus aureus, Staphylococcus aureus (MRSA PVL+), n=30; read-out: MIC90

given.smiles: C[C@H]1COc2c(N3CCN(C)CC3)c(F)cc3c(=O)c(C(=O)O)cn1c23
qualifier.sign: >
MIC90 / mg/L: 2
--
given.smiles: CN[C@H](CC(C)C)C(=O)N[C@H]1C(=O)N[C@@H](CC(N)=O)C(=O)N[C@H]2C(=O)N[C@H]3C(=O)N[C@H](C(=O)N[C@H](C(=O)O)c4cc(O)cc(O)c4-c4cc3ccc4O)[C@H](O)c3ccc(c(Cl)c3)Oc3cc2cc(c3O[C@@H]2O[C@H](CO)[C@@H](O)[C@H](O)[C@H]2O[C@H]2C[C@](C)(N)[C@H](O)[C@H](C)O2)Oc2ccc(cc2Cl)[C@H]1O
qualifier.sign: =
MIC90 / mg/L: 1
--
given.smiles: CN(C)[C@@H]1C(O)=C(C(N)=O)C(=O)[C@@]2(O)C(O)=C3C(=O)c4c(O)c5c(c(F)c4C[C@H]3C[C@@H]12)CN(C(C)(C)C)C5
qualifier.sign: =
MIC90 / mg/L: 0.25
